Read-out: solute carrier (SLC22A1), SLC22A1 (gene 6580)
Assay: LTEA_HepaRG_SLC22A1: Life Technologies and Expression Analysis (LTEA) Assay for solute carrier (SLC22A1) using HepaRG (AID 2283524)
Conditions: mRNA level, 48 h; actives raise or lower the signal
Activity calls are given as the source filed them. Rule for the calls: active = hit-call score of the fitted dose curve at least 0.9, where 1 is the maximum; inactive = score below 0.9.
Respond with a class label; see active, inactive

Worked examples, 8 compounds total:
{"compound": "Clc1ccc(C(c2ccc(Cl)cc2)C(Cl)Cl)cc1", "label": "active"}
{"compound": "ClCCOCCCl", "label": "inactive"}
{"compound": "CCCCOC(=O)c1ccccc1C(=O)OCc1ccccc1", "label": "inactive"}
{"compound": "Cc1ccc(N)c(N)c1", "label": "inactive"}
{"compound": "CCOC(=O)[C@]1(c2ccccc2)Oc2ccccc2[C@@H]1N", "label": "active"}
{"compound": "CC(C)(C)C(O)(CCc1ccc(Cl)cc1)Cn1cncn1 (stereo not drawn)", "label": "active"}
{"compound": "ClC1=C(Cl)[C@]2(Cl)[C@H]3[C@H]([C@@H]4C=C[C@H]3C4)[C@@]1(Cl)C2(Cl)Cl", "label": "active"}
{"compound": "CN(C)C(=O)Nc1ccc(Cl)cc1", "label": "inactive"}

Per the records of this test, what outcome belongs to CCCSC(=O)N(CCC)CCC ? inactive

Same lookup for Clc1ccc(Cl)c(Cl)c1 , please. active

Same lookup for CCCCCCCCOC(=O)c1ccc(C(=O)OCCCCCCCC)c(C(=O)OCCCCCCCC)c1 , please. inactive

Same lookup for OCCCBr , please. inactive

Same lookup for CC(C)(OOC(C)(C)c1ccccc1)c1ccccc1 , please. inactive

Same lookup for [Cl-].[Cl-].[Hg+2] , please. inactive

Same lookup for Oc1ccc2ccc3cccc4ccc1c2c34 , please. inactive

Same lookup for Nc1cc(Cl)cc(C(=O)O)c1Cl , please. inactive

Same lookup for Clc1ccccc1Cl , please. inactive

Same lookup for Clc1ccc(C(c2ccc(Cl)cc2)C(Cl)(Cl)Cl)cc1 , please. inactive

Same lookup for C[C@]12C=CC3=C4CCC(=O)C=C4CC[C@H]3[C@@H]1CC[C@@H]2O , please. active

Hello, the source for this data is PubChem BioAssay (EPA / NIEHS), in case you need it.
